- system name: CYP2D6 (Homo sapiens, UniProt P10635)
- Sequence (P10635 whole entry): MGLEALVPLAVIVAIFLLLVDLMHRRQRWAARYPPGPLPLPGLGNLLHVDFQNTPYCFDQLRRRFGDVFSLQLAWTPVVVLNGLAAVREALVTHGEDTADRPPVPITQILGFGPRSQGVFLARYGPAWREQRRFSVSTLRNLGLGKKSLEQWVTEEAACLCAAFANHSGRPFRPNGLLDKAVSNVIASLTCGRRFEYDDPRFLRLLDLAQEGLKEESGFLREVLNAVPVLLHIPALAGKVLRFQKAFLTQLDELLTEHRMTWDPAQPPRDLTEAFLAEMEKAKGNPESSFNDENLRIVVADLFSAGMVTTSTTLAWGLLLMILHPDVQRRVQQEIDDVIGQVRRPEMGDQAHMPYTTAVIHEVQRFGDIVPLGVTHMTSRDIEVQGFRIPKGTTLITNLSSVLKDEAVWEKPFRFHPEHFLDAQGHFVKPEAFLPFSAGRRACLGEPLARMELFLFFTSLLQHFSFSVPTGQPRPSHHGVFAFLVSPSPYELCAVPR
- assay: CYP2D6 inhibition in pooled human liver microsomes
- Type: in vitro ADME
- Design: Pooled human liver microsomes (HLM, final concentration 0.05 mg protein/mL); tissue BD Biosciences 452161; host or cells: pooled human liver microsomes
- particulars: 10 μM compound, dextrorphan formation rate
Bridge positions count the residues as written; N and C are the ends. Square brackets hold non-standard residues; d marks the D form. Peptide text beside a SMILES is read from it. hArg = N=C(N)NCCCC[C@H](N)C(=O)O; Ac5c = NC1(C(=O)O)CCCC1; Aib = CC(C)(N)C(=O)O
Some compounds, each annotated with its measured CYP2D6 activity (% of vehicle).

// below: answered compounds
CC[C@H](C)[C@H](NC(=O)[C@H](CCC(=O)O)NC(=O)C(C)(C)NC(=O)[C@@H](NC(=O)C1(N)CCCC1)C(C)C)C(=O)N[C@@H](CCC(N)=O)C(=O)N[C@@H](CC(C)C)C(=O)N[C@@H](CCSC)C(=O)N[C@@H](Cc1c[nH]cn1)C(=O)N[C@@H](CC(N)=O)C(=O)N[C@@H](CC(C)C)C(=O)NCC(=O)N[C@H]1CCCCNC(=O)C[C@@H](C(N)=O)NC(=O)[C@H](CC(N)=O)NC(=O)[C@H](CC(C)C)NC(=O)[C@H](Cc2c[nH]cn2)NC1=O [SEQ ID NO: 34] (H-[Ac5c]V[Aib]EIQLMHNLGKHLND-NH2; lactam 13-17)    107 % of vehicle
CC[C@H](C)[C@H](NC(=O)[C@H](CCC(=O)O)NC(=O)[C@H](CO)NC(=O)[C@@H](NC(=O)[C@@H](N)CO)C(C)C)C(=O)N[C@@H](CCC(N)=O)C(=O)N[C@@H](CC(C)C)C(=O)N[C@@H](CCSC)C(=O)N[C@@H](Cc1c[nH]cn1)C(=O)N[C@@H](CC(N)=O)C(=O)N[C@@H](CC(C)C)C(=O)NCC(=O)N[C@@H](CCCCN)C(=O)N[C@@H](Cc1c[nH]cn1)C(=O)N[C@@H](CC(C)C)C(=O)N[C@@H](CC(N)=O)C(=O)N[C@@H](CO)C(N)=O [SEQ ID NO: 37, reference compound]    41 % of vehicle
CC[C@H](C)[C@H](NC(=O)[C@H](CCC(=O)O)NC(=O)C(C)(C)NC(=O)[C@@H](NC(=O)C1(N)CCCC1)C(C)C)C(=O)N[C@@H](CCC(N)=O)C(=O)N[C@@H](CC(C)C)C(=O)N[C@@H](CCSC)C(=O)N[C@@H](Cc1c[nH]cn1)C(=O)N[C@@H](CC(N)=O)C(=O)N[C@@H](CC(C)C)C(=O)NCC(=O)N[C@@H](CCCCN)C(=O)N[C@@H](Cc1c[nH]cn1)C(=O)N[C@@H](CC(C)C)C(=O)N[C@@H](CC(N)=O)C(=O)N[C@@H](CC(=O)O)C(N)=O [SEQ ID NO: 1] (H-[Ac5c]V[Aib]EIQLMHNLGKHLND-NH2)    57 % of vehicle

Fill blank: measured CYP2D6 activity (% of vehicle) of the compound CC[C@H](C)[C@H](NC(=O)[C@H](CCC(=O)O)NC(=O)C(C)(C)NC(=O)[C@@H](NC(=O)C1(N)CCCC1)C(C)C)C(=O)N[C@@H](CCC(N)=O)C(=O)N[C@@H](CC(C)C)C(=O)N[C@@H](CCSC)C(=O)N[C@@H](Cc1c[nH]cn1)C(=O)N[C@@H](CCC(N)=O)C(=O)N[C@@H](CCCCNC(=N)N)C(=O)N[C@@H](C)C(=O)N[C@@H](CCCCN)C(=O)N[C@@H](Cc1c[nH]c2ccccc12)C(N)=O [SEQ ID NO: 31, reference compound] (H-[Ac5c]V[Aib]EIQLMHQ[hArg]AKW-NH2) is ____.
22 % of vehicle

Can you look up the measured CYP2D6 activity (% of vehicle) of CC[C@H](C)[C@H](NC(=O)[C@H](CCC(=O)O)NC(=O)C(C)(C)NC(=O)[C@@H](NC(=O)C1(N)CCCC1)C(C)C)C(=O)N[C@@H](CCC(N)=O)C(=O)N[C@@H](CC(C)C)C(=O)N[C@@H](CCSC)C(=O)N[C@@H](Cc1c[nH]cn1)C(=O)N[C@@H](CCC(N)=O)C(=O)N[C@@H](CCCCNC(=N)N)C(=O)N[C@@H](C)C(=O)N[C@H]1CCCCNC(=O)C[C@@H](C(N)=O)NC(=O)[C@H](CC(C)C)NC(=O)[C@H](Cc2c[nH]c3ccccc23)NC1=O [SEQ ID NO: 30] (H-[Ac5c]V[Aib]EIQLMHQ[hArg]AKWLD-NH2; lactam 13-16) for me?
83 % of vehicle
